// data source = patent US20250163127A1

target: CD28 (human) (UniProt P10747); assay: flow cytometry, transfected cells
observable: MFI (MFI)
Unit MFI implied. Number only.

| binder | MFI [MFI] |
| --- | --- |
| ICOSL-Fc N52L/N57H/Q100R (Fc fusion) DTQEKEVRAMVGSDVELSCACPEGSRFDLNDVYVYWQTSESKTVVTYHIPQLSSLEHVDSRYRNRALMSPAGMLRGDFSLRLFNVTPQDEQKFHCLVLSRSLGFQEVLSVEVTLHVAANFSVPVVSAPHSPSQDELTFTCTSINGYPRPNVYWINKTDNSLLDQALQNDTVFLNMRGLYDVVSVLRIARTPSVNIGCCIENVLLQQNLTVGSQTGNDIGERDKITENPVSTGEKNAAT | 141000 |
| ICOSL-Fc N52M/N57W/Q100P (Fc fusion) DTQEKEVRAMVGSDVELSCACPEGSRFDLNDVYVYWQTSESKTVVTYHIPQMSSLEWVDSRYRNRALMSPAGMLRGDFSLRLFNVTPQDEQKFHCLVLSPSLGFQEVLSVEVTLHVAANFSVPVVSAPHSPSQDELTFTCTSINGYPRPNVYWINKTDNSLLDQALQNDTVFLNMRGLYDVVSVLRIARTPSVNIGCCIENVLLQQNLTVGSQTGNDIGERDKITENPVSTGEKNAAT | 168000 |
| ICOSL-Fc N52C/N57E/Q100S (Fc fusion) DTQEKEVRAMVGSDVELSCACPEGSRFDLNDVYVYWQTSESKTVVTYHIPQCSSLEEVDSRYRNRALMSPAGMLRGDFSLRLFNVTPQDEQKFHCLVLSSSLGFQEVLSVEVTLHVAANFSVPVVSAPHSPSQDELTFTCTSINGYPRPNVYWINKTDNSLLDQALQNDTVFLNMRGLYDVVSVLRIARTPSVNIGCCIENVLLQQNLTVGSQTGNDIGERDKITENPVSTGEKNAAT | 13400 |

Would you kindly share the measured MFI for ICOSL ECD-Fc N155Q/N207Q (Fc fusion) DTQEKEVRAMVGSDVELSCACPEGSRFDLNDVYVYWQTSESKTVVTYHIPQNSSLENVDSRYRNRALMSPAGMLRGDFSLRLFNVTPQDEQKFHCLVLSQSLGFQEVLSVEVTLHVAANFSVPVVSAPHSPSQDELTFTCTSINGYPRPNVYWIQKTDNSLLDQALQNDTVFLNMRGLYDVVSVLRIARTPSVNIGCCIENVLLQQQLTVGSQTGNDIGERDKITENPVSTGEKNAAT ?
1490

Same again, this time with ICOSL-Fc N52Q/N57F (Fc fusion) DTQEKEVRAMVGSDVELSCACPEGSRFDLNDVYVYWQTSESKTVVTYHIPQQSSLEFVDSRYRNRALMSPAGMLRGDFSLRLFNVTPQDEQKFHCLVLSQSLGFQEVLSVEVTLHVAANFSVPVVSAPHSPSQDELTFTCTSINGYPRPNVYWINKTDNSLLDQALQNDTVFLNMRGLYDVVSVLRIARTPSVNIGCCIENVLLQQNLTVGSQTGNDIGERDKITENPVSTGEKNAAT
131000
